Measured values drawn from patent US20240010684A1 for this set.

Target: T1, recombinant human MASP1 (amino acids 297-699, C-terminal His Tag) (human, UniProt P48740 297-699)
T1 sequence: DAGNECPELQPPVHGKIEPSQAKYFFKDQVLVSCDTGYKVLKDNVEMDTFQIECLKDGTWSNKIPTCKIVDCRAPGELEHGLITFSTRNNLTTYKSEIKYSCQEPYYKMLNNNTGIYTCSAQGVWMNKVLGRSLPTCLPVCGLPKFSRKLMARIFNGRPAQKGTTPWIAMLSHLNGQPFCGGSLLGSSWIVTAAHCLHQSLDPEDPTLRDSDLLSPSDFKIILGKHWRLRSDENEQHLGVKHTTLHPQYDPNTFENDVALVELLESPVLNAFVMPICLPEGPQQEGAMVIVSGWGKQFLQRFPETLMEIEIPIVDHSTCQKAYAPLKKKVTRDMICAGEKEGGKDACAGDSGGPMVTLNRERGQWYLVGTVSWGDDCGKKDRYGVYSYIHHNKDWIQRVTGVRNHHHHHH
Assay: cell-based or functional assay
Bridges are numbered along the chain shown (N, C = ends). [ ]: non-standard residue; d: D form. Oic = O=C(O)[C@@H]1C[C@@H]2CCCC[C@@H]2N1; Trx = NC[C@H]1CC[C@H](C(=O)O)CC1; tBuAla = CC(C)(C)C[C@H](N)C(=O)O; Pen = CC(C)(S)[C@H](N)C(=O)O; NMeC = CN[C@@H](CS)C(=O)O; Ahx = NCCCCCC(=O)O

{"columns": ["binder", "human MASP1 IC50 / nM"],
 "data": [
  ["G[Trx]GICSRS[tBuAla]PPI[Pen]IPD-NH2 (disulfide 5-13; lactam N-16; also: TFA salt) [Example 62: G**-(TXA)-GIC+SRS-((tBu)A)-PPI-(Pen)+-IPD++-NH2]", 22],
  ["AGGICSRSLP[Oic]I[Pen]IPD-NH2 (disulfide 5-13; lactam N-16; also: TFA salt) [Example 42: A**GGIC+SRSLP-(Oic)-I-(Pen)+-IPD++-NH2]", 13],
  ["cyclo([Ahx]AICSRS[tBuAla]PPI[NMeC]IPD) (disulfide 4-12; also: TFA salt) [Example 32: (Ahx)**-AIC+SRS-((tBu)A)-PPI-((N-Me)C)+-IPD**]", 22]
]}
